FYI, the data here is from patent US20150105252A1.

- Tested on: soybean
- assay protocol: Test C preemergence
- Format: in vivo, Glycine max
- reported conditions: preemergence, 125 g ai/ha; 13 to 15 days; scale 0 to 100, 0 = no effect, 100 = complete control
readout label: Plant response rating, Soybean
Give the value as a plain number.

                                   compound  tested_system  assay_result
0  CCc1cc(C(=O)NCC(F)(F)F)nn1Cc1ccnc(SC(F)(F)F)c1 [Compound 214]        soybean            90
1  CCc1cc(C(=O)NCC(F)(F)F)nn1Cc1ccnc(Br)c1 [Compound 224]        soybean            65
2  CCNC(=O)c1cc(CC)n(Cc2cc(C(F)(F)F)nn2C)n1 [Compound 154]        soybean            95
3  CCCc1cc(C(=O)NC(C)C)nn1Cc1ccnc(C(F)(F)F)c1 [Compound 186]        soybean            98

Could you now look at the following compound, please?
query: Need Plant response rating, Soybean of CCCNC(=O)c1cc(OCC)n(Cc2ccnc(C(F)(F)F)c2)n1 [Compound 187] , thanks.
result: 98

----------
- Test system: ryegrass, Italian
- assay protocol: Test C postemergence
- Assay type: in vivo, Lolium multiflorum
- reported conditions: postemergence, 250 g ai/ha; scale 0 to 100 (0 no effect, 100 complete control)
readout label: Plant response rating, Ryegrass, Italian
The response must contain the number and no unit.

Guide cases for Plant response rating, Ryegrass, Italian, answers given:
                               given_smiles      tested_system                             readout_label  assay_result
0  CCCNC(=O)c1cc(CC)n(Cc2nc(C(F)(F)F)nn2C)n1  ryegrass, Italian  Plant response rating, Ryegrass, Italian            10
1       CCc1cc(C(=O)NC2CC2)nn1Cc1ccnc(Br)c1  ryegrass, Italian  Plant response rating, Ryegrass, Italian             5
2  CCCc1cc(C(=O)NCC(F)(F)F)nn1Cc1ccnc(OC(F)F)c1  ryegrass, Italian  Plant response rating, Ryegrass, Italian            40

query: Please provide the recorded Plant response rating, Ryegrass, Italian for CCc1cc(C(=O)NCC(F)(F)F)nn1Cc1cc(C(F)(F)F)nn1C , tested on ryegrass, Italian.
result: 20

----------
- Tested on: morningglory
- assay protocol: Test C postemergence
- Format: in vivo, Ipomoea coccinea
- reported conditions: postemergence, 62 g ai/ha; scale 0 to 100
- Text: […]
Reported Morningglory plant response rating values for the following compounds.

>>> df
                               given_smiles                       readout_label  assay_result
0  CCCc1cc(C(=O)NC(C)C)nn1Cc1cc(C(F)(F)F)nn1C  Morningglory plant response rating            95

query: Can you look up the measured Morningglory plant response rating of Cc1cc(C(=O)NCC(F)(F)F)nn1Cc1ccnc(C(F)(F)F)c1 for me?
result: 75

query: What measured Morningglory plant response rating goes with CCCNC(=O)c1cc(CC)n(Cc2nc(C(F)(F)F)nn2C)n1 ?
result: 70

query: Which value of Morningglory plant response rating has been reported for CCc1cc(C(=O)NC2CC2)nn1Cc1ccnc(Br)c1 in the records?
result: 55

query: Which Morningglory plant response rating is reported for this compound? CCc1cc(C(=O)NCC(F)(F)F)nn1Cc1cc(C(F)(F)F)nn1C
result: 50

----------
- System: ducksalad
- assay protocol: Test C flooded paddy test
- Assay type: in vivo, Heteranthera limosa
- reported conditions: Flood, 31 g ai/ha; scale 0 to 100 (0 no effect, 100 complete control)
readout label: Plant response rating, Ducksalad

Consider the following illustrative entries.
In [3]: df
Out[3]:
                               given_smiles  assay_result
0  CCCc1cc(C(=O)NCC)nn1Cc1cccc(OC(F)(F)F)c1             0
1  CCOc1cc(C(=O)NCC(F)(F)F)nn1Cc1ccnc(OC(F)F)c1            40
2  CCCNC(=O)c1cc(CCF)n(Cc2ccnc(C(F)(F)F)c2)n1             0

query: # Plant response rating, Ducksalad lookup, item CCc1cc(C(=O)NC(C)C)nn1Cc1ccnc(OCC(F)(F)F)c1
result: 0

query: So what's the measured Plant response rating, Ducksalad for this one? CCc1cc(C(=O)NOC(C)C)nn1Cc1cccc(OC(F)(F)F)c1
result: 30

query: So what's the measured Plant response rating, Ducksalad for this one? CCONC(=O)c1cc(CC)n(Cc2ccnc(C(F)(F)F)c2)n1
result: 20

----------
- System: foxtail, giant
- assay protocol: Test C preemergence
- Assay type: in vivo, Setaria faberii
- reported conditions: preemergence, 125 g ai/ha; scale 0 to 100, 0 is no effect, 100 is complete control
readout label: Foxtail, Giant plant response rating
Respond numerically, and do not add a unit to the figure.

Sample records with Foxtail, Giant plant response rating:
                               given_smiles  assay_result
0  CCCNC(=O)c1cc(CC)n(Cc2nc(C(F)(F)F)nn2C)n1           100
1  CCc1cc(C(=O)NOC(C)C)nn1Cc1cccc(OC(F)(F)F)c1            90

query: Foxtail, Giant plant response rating lookup needed for CCc1cc(C(=O)NCC(F)(F)F)nn1Cc1cc(C(F)(F)F)nn1C , thanks.
result: 100

query: What value of Foxtail, Giant plant response rating has been reported for the following compound? CCc1cc(-c2ccc(C(F)(F)F)cc2)nn1Cc1ccnc(C(F)(F)F)c1
result: 100

query: Foxtail, Giant plant response rating lookup needed for Cc1cc(C(=O)NCC(F)(F)F)nn1Cc1ccnc(C(F)(F)F)c1 , thanks.
result: 100

----------
- Tested on: barnyardgrass
- assay protocol: Test A preemergence
- Assay type: in vivo, Echinochloa crus-galli
- reported conditions: Preemergence, 1000 g ai/ha; 0 to 100 scale, 0 no effect, 100 complete control
Barnyardgrass plant response rating overview
In your answer, state the number alone without any accompanying words.

Here is how some compounds turned out for Barnyardgrass plant response rating.
>>> df
                               given_smiles  assay_result
0  CCc1cc(C(=O)NC(C)(C)C)nn1Cc1cccc(OC(F)(F)F)c1             0
1  O=C(NC1CC1)c1cc(C2CC2)n(Cc2cccc(OC(F)(F)F)c2)n1             0
2  CCNC(=O)c1cc(C2CC2)n(Cc2cccc(OC(F)(F)F)c2)n1             0
3  CCc1cc(C(=O)NC(C)(C)C)nn1Cc1cccc(C(F)(F)F)c1            10

query: Consider the compound CCc1cc(C(=O)N(C)CC)nn1Cc1cccc(C(F)(F)F)c1 and give its measured Barnyardgrass plant response rating.
result: 0

----------
Listed compounds paired with reported Velvetleaf plant response rating
- Tested on: velvetleaf
- assay protocol: Test A preemergence
- Assay type: in vivo, Abutilon theophrasti
- reported conditions: Preemergence, 500 g ai/ha; 0 to 100 scale, 0 no effect, 100 complete control

query: Any idea what Velvetleaf plant response rating was measured for Cc1cc(C(=O)NC2CC2)nn1Oc1ccnc(C(F)(F)F)c1 ?
result: 60

query: Could you share which Velvetleaf plant response rating value was measured for Cc1cc(C(=O)NCC(F)(F)C(F)(F)F)nn1Cc1cccc(OC(F)(F)F)c1 ?
result: 0

query: Find the recorded Velvetleaf plant response rating belonging to Cc1cc(C(=O)NCC(F)(F)F)nn1Cc1cccc(OC(F)(F)F)c1 and report it.
result: 20

----------
Overview of recorded Velvetleaf plant response rating for various molecules
- Test system: velvetleaf
- assay protocol: Test C preemergence
- Type: in vivo, Abutilon theophrasti
- reported conditions: preemergence, 62 g ai/ha; scale 0 to 100 (0 no effect, 100 complete control), 13 to 15 days
Provide a numeric answer; units are not to be included.

query: Looking for the measured Velvetleaf plant response rating of CCCNC(=O)c1cc(OCC)n(Cc2ccnc(OC(F)F)c2)n1 , can you help?
result: 100

----------
- System: velvetleaf
- assay protocol: Test C preemergence
- Format: in vivo, Abutilon theophrasti
- reported conditions: preemergence, 125 g ai/ha; 13 to 15 days; scale 0 to 100, 0 = no effect, 100 = complete control
readout label: Plant response rating, Velvetleaf
Form field (numeric): enter value without unit.

                                   compound  assay_result
0  CCc1cc(C(=O)NCC(F)(F)F)nn1Cc1ccnc(SC(F)(F)F)c1 [Compound 214]           100
1  CCOc1cc(C(=O)NOC(C)C)nn1Cc1ccnc(C(F)(F)F)c1 [Compound 153]            90
2  CCCc1cc(C(=O)NCC(F)(F)F)nn1Cc1ccnc(OC(F)F)c1 [Compound 127]           100
3  CCc1cc(C(=O)NCC(F)(F)F)nn1Cc1ccnc(Br)c1 [Compound 224]           100
4  CCCc1cc(C(=O)NC2CC2)nn1Cc1ccnc(OC(F)F)c1 [Compound 205]           100

Field: next compound
query: Entry CCCc1cc(C(=O)NC(C)C)nn1Cc1cc(C(F)(F)F)nn1C [Compound 201] : reported Plant response rating, Velvetleaf = ?
result: 100
